Assay: Plasma half-life
Assay type: in vivo
Conditions: read-out: Elimination half-life
*1 amine or outer side, *2 acyl side, *3 side chain or, on linkers, in order; H or OH if unused. Where a SMILES comes first, the peptide text is derived from it. Side-chain parts run from the residue outwards. [ ]: non-standard residue; d: D form. The star is where a group is joined. Ethylenediamine = C(CN[*:2])N[*:1]; Hyp = O=C(O)[C@@H]1C[C@@H](O)CN1; Phg = N[C@H](C(=O)O)c1ccccc1; CO = O=C([*:1])[*:2]; Bn = c1ccc(C*)cc1
readout_label: half-life

Query (molecule): NCCCC[C@@H]1NC(=O)[C@@H](Cc2c[nH]c3ccccc23)NC(=O)[C@H](c2ccccc2)NC(=O)[C@@H]2C[C@@H](OC(=O)NCCN)CN2C(=O)[C@H](Cc2ccccc2)NC(=O)[C@H](Cc2ccc(OCc3ccccc3)cc2)NC1=O [Compound A] (cyclo([Hyp]([CO-Ethylenediamine])[Phg][dW]KY(Bn)F)) ; field requested: half-life 15 to 30 h
